Test system: TK-10
experiment: AUC of dose-response viability curve, drug alone (arbitrary (AUC of normalised viability)); higher = less growth inhibition
settings: treatment: drug alone; 5 days
observable: AUC of dose-response viability curve
The answer should be written as a number, with no unit following it.

Field AUC of dose-response viability curve (entry `CCOc1ccn(-c2ccc(F)cc2)c(=O)c1C(=O)Nc1ccc(Oc2ccnc(N)c2Cl)c(F)c1` ) reads 2.99

AUC of dose-response viability curve recorded for this compound, `O=C1NC(=O)C(c2ccccc2[N+](=O)[O-])=C1Nc1ccc(O)c(Cl)c1` , is 3.02

AUC of dose-response viability curve for COc1cc2nccc(Oc3ccc(NC(=O)C4(C(=O)Nc5ccc(F)cc5)CC4)cc3)c2cc1OC [XL-184 free base (Cabozantinib)] is 2.91

Value of AUC of dose-response viability curve reported for the compound `CC(C)c1ccccc1Cc1cc(C(=O)Nc2ccc(S(=O)(=O)c3ccccc3C(C)(C)C)cc2)c(O)c(O)c1O` is 2.25

Value of AUC of dose-response viability curve reported for the compound `Nc1ccc(-c2ccc3ncc4ccc(=O)n(-c5cccc(C(F)(F)F)c5)c4c3c2)cn1` is 0.982

According to the records, this compound `Cc1cnc(NC(=O)Nc2cc(Br)c(C)cc2OC[C@@H]2CNCCO2)cn1` displays AUC of dose-response viability curve of 2.25

AUC of dose-response viability curve reported for this compound `Cn1cc(C2=C(c3ccc(Cl)cc3Cl)C(=O)NC2=O)c2ccccc21` : 3.26

Entry `C[C@@H]1CN(CC(=O)Nc2ccc3c(c2)Cc2cccc(-c4cc(=O)cc(N5CCOCC5)o4)c2S3)C[C@H](C)O1` , AUC of dose-response viability curve reported as 3.25

====

Test system: CAKI-1
experiment: minimum viability across doses, drug alone, relative to DMSO (fraction); higher = less growth inhibition
settings: treatment: drug alone; 5 days
Give measured minimum viability across doses for each item. Keep answers brief.
Answer with the value's number alone.

// `O=C(Nc1cccc(Nc2ncc(Br)c(NCCc3cnc[nH]3)n2)c1)N1CCCC1` : minimum viability across doses value = 0.139

Sample `CCCS(=O)(=O)Nc1ccc(F)c(C(=O)c2c[nH]c3ncc(Cl)cc23)c1F` ; minimum viability across doses observed: 0.278

Documented minimum viability across doses of `Cc1csc(-c2nnc(Nc3ccc(Oc4ncccc4-c4ccnc(N)n4)cc3)c3ccccc23)c1` : 0.425

Record summary for `Cc1cnc(NC(=O)Nc2cc(Br)c(C)cc2OC[C@@H]2CNCCO2)cn1` : reported minimum viability across doses = 0.145

Quick note, minimum viability across doses for `Cc1cnc(Nc2ccc(OCCN3CCCC3)cc2)nc1Nc1cccc(S(=O)(=O)NC(C)(C)C)c1` landed at 0.00962

// recorded minimum viability across doses for COc1ccc2cc(-c3[nH]c(-c4ccc(S(C)=O)cc4)nc3-c3ccncc3)ccc2c1 (centres undefined) : 0.864

Kindly note the recorded minimum viability across doses for `c1cncc(CN2CCC(n3ncc4c(N5CCOCC5)nc(-c5ccc6[nH]ccc6c5)nc43)CC2)c1` , which is 0.0276

Looking up `Cc1n[nH]c2ccc(-c3cncc(OC[C@@H](N)Cc4ccccc4)c3)cc12` , I see its minimum viability across doses listed as 0.073

// minimum viability across doses lookup, compound = `COc1cc2c(Nc3ccc(NC(=O)c4ccccc4)cc3)ncnc2cc1OCCCN1CCOCC1` , result: 0.108
